Data origin, for the record: ChEMBL document CHEMBL1127698

Target: Interstitial collagenase (Homo sapiens)
Sequence (P03956 whole entry): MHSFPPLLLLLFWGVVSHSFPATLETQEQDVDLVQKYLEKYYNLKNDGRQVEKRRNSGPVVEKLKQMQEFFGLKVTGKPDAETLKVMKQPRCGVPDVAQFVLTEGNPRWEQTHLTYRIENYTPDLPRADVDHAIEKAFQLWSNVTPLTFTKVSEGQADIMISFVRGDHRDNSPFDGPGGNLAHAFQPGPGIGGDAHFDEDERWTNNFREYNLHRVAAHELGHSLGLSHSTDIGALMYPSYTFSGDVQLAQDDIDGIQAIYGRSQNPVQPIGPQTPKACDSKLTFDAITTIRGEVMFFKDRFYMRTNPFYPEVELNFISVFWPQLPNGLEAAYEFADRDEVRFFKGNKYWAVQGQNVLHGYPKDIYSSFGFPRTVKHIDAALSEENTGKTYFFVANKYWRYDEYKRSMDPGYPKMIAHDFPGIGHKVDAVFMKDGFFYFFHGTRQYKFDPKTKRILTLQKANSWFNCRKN
pIC50: −log10 of the molar value.
outcome.measure: pIC50

CC(C)C[C@H](N[C@H](CCN1C(=O)c2cc3ccccc3cc2C1=O)C(=O)O)C(=O)NCc1ccc(C(=O)O)cc1: 7.25
CC(C)C[C@H](N[C@H](CCN1C(=O)c2cc3ccccc3cc2C1=O)C(=O)O)C(=O)N1CCCC1c1cccnc1 (stereo in doubt; 75): 7.36

A: CNC(=O)[C@H](CC(C)C)N[C@H](CCN1C(=O)c2cc3ccccc3cc2C1=O)C(=O)O
B: CC(C)C[C@H](N[C@H](CCN1C(=O)c2cc3ccccc3cc2C1=O)C(=O)O)C(=O)NCc1ccc(S(N)(=O)=O)cc1
Query block: Please indicate which entry, A or B , has the lower recorded pIC50 value. Your answer should be the label attached to the chosen record.
Result block: A
(A: 6.31, B: 7.15)
